target: T1, EutV (Enterococcus faecalis, UniProt A0A1Q1FU69 1-190)
T1 sequence: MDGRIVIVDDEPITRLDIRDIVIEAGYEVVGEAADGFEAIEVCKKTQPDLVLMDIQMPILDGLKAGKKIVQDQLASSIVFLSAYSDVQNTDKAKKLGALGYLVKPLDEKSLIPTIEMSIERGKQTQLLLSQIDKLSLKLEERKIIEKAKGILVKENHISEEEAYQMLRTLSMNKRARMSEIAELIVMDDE
test: SPR; unphosphorylated, CM5 streptavidin chip, n=6; SPR: 10 mM HEPES pH 7, 150 mM NaCl, 0.05% Tween-20, 2.5 mM MgCl2, 4 C; EMSA: 25 mM HEPES pH 7.5, 150 mM NaCl, 10 mM MgCl2, 4 C, 25 nM RNA
conditionSummary: protein: recombinant; tags: none (His-tag cleaved by TEV); chain copies: 2; label: 3' biotin-TEG; two hairpins with hexaloops P1 and P2
assayReadout: pKd
pKd here: minus log base 10 of the concentration, concentration in moles per litre.

Quick check: pKd of EutP RNA, 3' biotin (structured_RNA) RNA: AGAAUCAGAAACACAAUGGCGUGUUUUAACAAAUCGGCAAAGGAGCCCAAG ?
5.66
